- Tested on: Acinetobacter baumannii ATCC 19606
- measurement_description: Antibacterial screen at 200 μg/mL (cell density vs control)
- Format: cell-based
- assay_setup: peptide 200 μg/mL, CAMHB, 5 × 10^5 CFU/mL, 37°C, 12 h, OD600; control (no AMP) = 1; three biological replicates
- Procedure: Eight bacterial strains were utilized in the antibacterial experiment. S. aureus ATCC 12600, B. subtilis ATCC 23857, E. coli ATCC 11775, and A. baumannii ATCC 19606 were purchased from Shanghai Beinuo Biology. […] Three biological replicates were conducted for each group, and OD600 values were measured after incubation at 37°C for 12 h. […] The MIC of a peptide against a bacterium was determined as the minimum peptide concentration at which there was no visible bacterial growth.
parameter_measured: cell density relative to control, A. baumannii ATCC 19606
Give bare numbers.

Please review the entries below; each comes with its answer.
MRRFCCCRCSCCCWPS [Cand-25, chemically synthesized candidate AMP predicted from marine biofilm bacteria]; 1
MLTTIAKSTKKCKPKSCCACSLYRC [Cand-216, chemically synthesized candidate AMP predicted from marine biofilm bacteria]; 1
MRPCMCRIGGRL [Cand-19, chemically synthesized candidate AMP predicted from marine biofilm bacteria]; 1
MGAVCRMGSLPCLIPRGAIRLG [Cand-198, chemically synthesized candidate AMP predicted from marine biofilm bacteria]; 0.765
MWTIYSGIKRSLHYCRRRGYYCSRYGYYS [Cand-43, chemically synthesized candidate AMP predicted from marine biofilm bacteria]; 0.385

Quick request: cell density relative to control, A. baumannii ATCC 19606 for each listed item, please.
1. MGRISCMWSSSYKCRFNCYF [Cand-20, chemically synthesized candidate AMP predicted from marine biofilm bacteria]
2. MKGLSKCVTHVVTAA [Cand-115, chemically synthesized candidate AMP predicted from marine biofilm bacteria]
3. MKRLKKCVLSSLSI [Cand-126, chemically synthesized candidate AMP predicted from marine biofilm bacteria]
4. MSCDLQKVRGCLPRLIVHK [Cand-142, chemically synthesized candidate AMP predicted from marine biofilm bacteria]
5. MCALKWFCKSLIRALNKAT [Cand-68, chemically synthesized candidate AMP predicted from marine biofilm bacteria]
6. MGTYPKVGNSHWKR [Cand-69, chemically synthesized candidate AMP predicted from marine biofilm bacteria]
7. MWWSKSIHQACFTRYRGYCRWCCTFSIRSCRY [Cand-3, chemically synthesized candidate AMP predicted from marine biofilm bacteria]

[0.937, 1, 0.191, 1, 0, 0.889, 0.702]

* * *

- Test system: Salmonella bongori ATCC 43975
- measurement_description: Antibacterial screen at 200 μg/mL (cell density vs control)
- Assay type: cell-based
- assay_setup: peptide 200 μg/mL, CAMHB, 5 × 10^5 CFU/mL, 37°C, 12 h, OD600; control (no AMP) = 1; three biological replicates
Record form. Attribute: cell density relative to control, S. bongori ATCC 43975. Fill in for each entry.
One number for each entry.

# annotated cases, reported cell density relative to control, S. bongori ATCC 43975 shown
MGPHWRGPRWGRVGCWNL [Cand-154, chemically synthesized candidate AMP predicted from marine biofilm bacteria]; 0.544
MWWSKSIHQACFTRYRGYCRWCCTFSIRSCRY [Cand-3, chemically synthesized candidate AMP predicted from marine biofilm bacteria]; 0.438
MFKFFCCIFYMCRIKTH [Cand-18, chemically synthesized candidate AMP predicted from marine biofilm bacteria]; 0.031
MFSKLVKVLLKALCHVFMKCTFW [Cand-61, chemically synthesized candidate AMP predicted from marine biofilm bacteria]; 0.633
MTWPSRSRMWRTC [Cand-129, chemically synthesized candidate AMP predicted from marine biofilm bacteria]; 0.704

Give me cell density relative to control, S. bongori ATCC 43975 for each of these sequences, listed below.
1. MCTRSCRPNLVKC [Cand-47, chemically synthesized candidate AMP predicted from marine biofilm bacteria]
2. MRPGMCRIGGRL [Cand-22, chemically synthesized candidate AMP predicted from marine biofilm bacteria]
3. MLRRIGRMWRKLHPHGQ [Cand-10, chemically synthesized candidate AMP predicted from marine biofilm bacteria]
4. MKALRRFLSCKVCSHALN [Cand-160, chemically synthesized candidate AMP predicted from marine biofilm bacteria]
5. MPKVKTKVCHRR [Cand-26, chemically synthesized candidate AMP predicted from marine biofilm bacteria]
6. MIYICTRITKCKLHGGCSSVG [Cand-155, chemically synthesized candidate AMP predicted from marine biofilm bacteria]
7. MPKRPWRACSSIG [Cand-212, chemically synthesized candidate AMP predicted from marine biofilm bacteria]

1: 0.835; 2: 0.876; 3: 0.009; 4: 0.072; 5: 0.862; 6: 1; 7: 0.839
